For each of the compounds below, state its viability, T/C.
tested on: 328373-195-R-J1-PDC complex spheroids, viability % test/control; assay: Anticancer human tumor 328373-195-R-J1-PDC patient-derived head and neck squamous carcinoma cell line growth inhibition [CLK]; conditions: second compound 0.1 µM; first compound 0.0316 µM; hits give low values;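 further: spheroids exposed to the agents for 7 days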

Take a look at these entries with their results.
| COMPOUND | RESULT |
| --- | --- |
| Nc1ccn(C2OC(CO)C(O)C2(F)F)c(=O)n1 (stereo not drawn) + CNC(=O)c1ccc(Nc2nc(OC3CCCC3)c3c(-c4ccc5nc(C)oc5c4)c[nH]c3n2)c(OC)c1 | 3.4% |
| COC1C=CCC(C)C(C)S(=O)(=O)NC(=O)c2ccc3c(c2)N(CC2CCC21)CC1(CCCc2cc(Cl)ccc21)CO3 (stereo not drawn) + CN1CCN(c2cc(C(=O)Nc3cc4cc(-c5cnn(C)c5)ccc4cn3)ccn2)CC1 | 77.3% |

Query CC1COCCN1c1cc(C2(S(C)(=N)=O)CC2)nc(-c2ccnc3[nH]ccc23)n1 (stereo not drawn) + CN1CCN(c2cc(C(=O)Nc3cc4cc(-c5cnn(C)c5)ccc4cn3)ccn2)CC1 yields viability, T/C of 90.9%
